Origin of values: the RNAGym collection of RNA variant scans (doi:10.1093/nar/gkz1192)

self-cleavage values for the variants below.
B1: CPEB3 Ribozyme (parent)
chain: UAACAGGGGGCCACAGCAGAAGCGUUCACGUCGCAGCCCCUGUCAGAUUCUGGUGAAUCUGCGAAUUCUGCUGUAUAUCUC

variants of: B1; assay: self-cleavage, relative activity (ratio to wild type); higher = more cleavage; in vitro, sequencing
measurement-type: self-cleavage

mutant-designation: G6A C38U
measurement-type: self-cleavage
value-reported: 0.3

mutant-designation: U54A C71A
measurement-type: self-cleavage
value-reported: 0.42

mutant-designation: G10A C32U
measurement-type: self-cleavage
value-reported: 0.19

mutant-designation: A20U C40A
measurement-type: self-cleavage
value-reported: 0.23

mutant-designation: G46U G73A
measurement-type: self-cleavage
value-reported: 0.81

mutant-designation: U48A A56G
measurement-type: self-cleavage
value-reported: 0.33

mutant-designation: C38A U80C
measurement-type: self-cleavage
value-reported: 0.41

mutant-designation: A3C U41A
measurement-type: self-cleavage
value-reported: 0.24

mutant-designation: A28U G42U
measurement-type: self-cleavage
value-reported: 0.21

mutant-designation: C17G U26C
measurement-type: self-cleavage
value-reported: 0.16

mutant-designation: A75G C79U
measurement-type: self-cleavage
value-reported: 1.18

mutant-designation: C37U U43G
measurement-type: self-cleavage
value-reported: 0.19

mutant-designation: G10A U51C
measurement-type: self-cleavage
value-reported: 0.24

mutant-designation: A47G C62A
measurement-type: self-cleavage
value-reported: 0.33

mutant-designation: C59G U74A
measurement-type: self-cleavage
value-reported: 0.37

mutant-designation: G61U U74C
measurement-type: self-cleavage
value-reported: 1.19

mutant-designation: G30A U66C
measurement-type: self-cleavage
value-reported: 0.32

mutant-designation: G55C U67A
measurement-type: self-cleavage
value-reported: 0.44

mutant-designation: U26C A28U
measurement-type: self-cleavage
value-reported: 0.29

mutant-designation: A65G G73A
measurement-type: self-cleavage
value-reported: 1.06

mutant-designation: U41C G46U
measurement-type: self-cleavage
value-reported: 0.34

mutant-designation: C40U U41C
measurement-type: self-cleavage
value-reported: 0.92

mutant-designation: G33A A57G
measurement-type: self-cleavage
value-reported: 0.25

mutant-designation: A13C A35U
measurement-type: self-cleavage
value-reported: 0.42

mutant-designation: A18U C81A
measurement-type: self-cleavage
value-reported: 0.69

mutant-designation: A20G G36A
measurement-type: self-cleavage
value-reported: 0.36

mutant-designation: A3G U26C
measurement-type: self-cleavage
value-reported: 0.65

mutant-designation: G42C U43A
measurement-type: self-cleavage
value-reported: 0.33

mutant-designation: G36U U41C
measurement-type: self-cleavage
value-reported: 0.3

mutant-designation: C29G C59A
measurement-type: self-cleavage
value-reported: 0.1

mutant-designation: A21C U80A
measurement-type: self-cleavage
value-reported: 0.18

mutant-designation: C68U U69A
measurement-type: self-cleavage
value-reported: 0.22

mutant-designation: G52A U54C
measurement-type: self-cleavage
value-reported: 1.09

mutant-designation: A3U U48C
measurement-type: self-cleavage
value-reported: 0.63

mutant-designation: C40U A77C
measurement-type: self-cleavage
value-reported: 0.74

mutant-designation: A57U U76A
measurement-type: self-cleavage
value-reported: 1.01

mutant-designation: U54C U76A
measurement-type: self-cleavage
value-reported: 1.17

mutant-designation: A3G G8U
measurement-type: self-cleavage
value-reported: 0.34

mutant-designation: C44G A45G
measurement-type: self-cleavage
value-reported: 0.34
